assay: self-splicing fitness, log relative to wild type (ln ratio); higher = more splicing; Tetrahymena group I intron in knt gene, E. coli kanamycin selection, DiMSum; sequences stand for … in CUCUCU…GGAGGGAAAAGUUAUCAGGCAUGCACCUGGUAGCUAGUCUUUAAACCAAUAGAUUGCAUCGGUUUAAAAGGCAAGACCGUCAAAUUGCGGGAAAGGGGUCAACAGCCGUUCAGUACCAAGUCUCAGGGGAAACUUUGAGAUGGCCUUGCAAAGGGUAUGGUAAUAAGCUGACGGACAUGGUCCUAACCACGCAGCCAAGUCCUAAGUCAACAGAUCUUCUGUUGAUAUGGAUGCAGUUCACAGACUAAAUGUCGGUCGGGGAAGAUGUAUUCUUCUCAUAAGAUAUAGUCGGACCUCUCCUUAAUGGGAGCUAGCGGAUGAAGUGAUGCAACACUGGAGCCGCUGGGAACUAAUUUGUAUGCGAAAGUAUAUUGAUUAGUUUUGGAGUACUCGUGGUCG;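 also: selection with 25 µg/mL kanamycin versus none on LB agar overnight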
assayConditions: 37 °C
Short version: self-splicing fitness (ln) at least -1 is YES, less is NO.

seqText: GGCUAGCAAUAUUACGUAGU
category: NO

seqText: CGGAAGCAAUAUUACGGUCU
category: YES

seqText: GACGAGCAAUAUUACGAUUA
category: NO

seqText: AUUGAGCAAUAUUACGUAAG
category: NO

seqText: AGCGAGCAAUAUUACGCCGU
category: NO

seqText: AACAAGCAAUAUUACGCGUC
category: NO

seqText: AUUGAGCAAUAUUACGUUAC
category: NO

seqText: GGCUAGCAAUAUUACGCCGU
category: YES

seqText: UCCCAGCAAUAUUACGUAUA
category: NO

seqText: UCUGAGCAAUAUUACGUACG
category: NO
